Values from ChEMBL document CHEMBL3132748

target-entity: Receptor tyrosine-protein kinase erbB-2 (Homo sapiens, UniProt P04626)
Sequence (P04626 whole entry, the tested form may be a part): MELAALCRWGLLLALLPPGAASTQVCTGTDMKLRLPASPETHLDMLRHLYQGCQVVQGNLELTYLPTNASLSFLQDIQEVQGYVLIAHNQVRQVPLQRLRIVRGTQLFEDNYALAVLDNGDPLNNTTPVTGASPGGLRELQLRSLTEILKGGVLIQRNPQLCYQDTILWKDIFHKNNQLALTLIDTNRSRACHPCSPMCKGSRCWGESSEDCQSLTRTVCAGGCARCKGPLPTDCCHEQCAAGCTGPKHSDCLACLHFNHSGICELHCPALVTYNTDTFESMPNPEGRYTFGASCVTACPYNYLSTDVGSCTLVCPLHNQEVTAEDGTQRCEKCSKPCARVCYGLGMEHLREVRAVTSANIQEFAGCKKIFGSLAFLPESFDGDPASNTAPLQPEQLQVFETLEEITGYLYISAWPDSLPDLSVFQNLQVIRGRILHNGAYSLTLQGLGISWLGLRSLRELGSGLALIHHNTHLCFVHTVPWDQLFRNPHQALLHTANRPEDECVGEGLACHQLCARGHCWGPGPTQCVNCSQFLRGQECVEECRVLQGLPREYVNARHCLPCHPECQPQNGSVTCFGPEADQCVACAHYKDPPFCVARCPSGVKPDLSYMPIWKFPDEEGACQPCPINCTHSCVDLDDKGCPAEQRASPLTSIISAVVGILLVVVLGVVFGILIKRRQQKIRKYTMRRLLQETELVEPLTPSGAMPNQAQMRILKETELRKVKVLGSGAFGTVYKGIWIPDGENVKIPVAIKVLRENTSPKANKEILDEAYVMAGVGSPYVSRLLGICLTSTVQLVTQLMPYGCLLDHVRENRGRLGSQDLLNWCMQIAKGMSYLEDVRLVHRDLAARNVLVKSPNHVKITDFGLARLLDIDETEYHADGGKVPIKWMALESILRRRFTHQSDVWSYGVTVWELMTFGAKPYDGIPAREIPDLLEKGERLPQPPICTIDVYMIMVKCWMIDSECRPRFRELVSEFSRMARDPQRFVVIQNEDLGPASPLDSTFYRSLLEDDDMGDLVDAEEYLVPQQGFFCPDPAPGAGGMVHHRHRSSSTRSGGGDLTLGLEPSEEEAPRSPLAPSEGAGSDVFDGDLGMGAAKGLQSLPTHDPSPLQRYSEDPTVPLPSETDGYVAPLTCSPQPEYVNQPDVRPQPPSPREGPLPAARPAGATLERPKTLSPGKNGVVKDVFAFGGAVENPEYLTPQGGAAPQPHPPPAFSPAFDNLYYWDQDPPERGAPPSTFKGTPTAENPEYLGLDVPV
procedure-text: Inhibition of human recombinant GST-fused HER2 expressed in baculovirus Sf9 insect cells using poly(Glu,Tyr) as substrate after 60 mins by scintillation counting
endpoint: IC50 (nM)

{"columns": ["chemical-smiles", "assay-value"],
 "data": [
  ["COc1cccc(Nc2ccnc3[nH]c4ccc(S(=O)(=O)N5CCOCC5)cc4c23)c1", 1240]
]}

(P) CC(=O)c1ccc2[nH]c3nccc(Nc4cccc(Cl)c4)c3c2c1
(Q) COc1cccc(Nc2ccnc3[nH]c4ccc(S(=O)(=O)N5CCN(CCO)CC5)cc4c23)c1
(R) CCOc1cccc(Nc2ccnc3[nH]c4ccc(S(=O)(=O)N5CCN(CCO)CC5)cc4c23)c1
(S) O=S(=O)(c1ccc2[nH]c3nccc(Nc4cccc(O)c4)c3c2c1)N1CCOCC1
Endpoint returns the given compounds ordered by ascending IC50. Respond with the label ranking, as requested. S, Q, P, R
(S: 298 nM, Q: 689 nM, P: 1150 nM, R: 6530 nM)

###

target-entity: Receptor tyrosine-protein kinase erbB-2 (Homo sapiens, UniProt P04626)
procedure-text: Inhibition of human recombinant GST-fused HER2 expressed in baculovirus Sf9 insect cells using poly(Glu,Tyr) as substrate after 60 mins by scintillation counting
endpoint: IC50 (nM)

As a guide, the following entries are already answered.
{"columns": ["chemical-smiles", "unit-text", "IC50"],
 "data": [
  ["Cc1ccccc1Nc1ccnc2[nH]c3ccccc3c12", "nM", 978],
  ["Oc1cccc(Nc2ccnc3[nH]c4ccccc4c23)c1", "nM", 1300]
]}

(a) CCOc1cccc(Nc2ccnc3[nH]c4ccc(S(=O)(=O)N5CCOCC5)cc4c23)c1
(b) O=S(=O)(c1ccc2[nH]c3nccc(Nc4cccc(O)c4)c3c2c1)N1CCN(CCO)CC1
Please choose the item with the lower IC50 value from this pair: a and b State the label of the item chosen. b

(a) CC(=O)c1ccc2[nH]c3nccc(Nc4cccc(O)c4)c3c2c1
(b) CC(=O)c1ccc2[nH]c3nccc(Nc4cccc(N)c4)c3c2c1
Please choose the item with the lower IC50 value from this pair: a and b State the label of the item chosen. a
(a: 13 nM, b: 1640 nM)

(I) CC(=O)c1ccc2[nH]c3nccc(Nc4cccc([N+](=O)[O-])c4)c3c2c1
(II) CCOc1cccc(Nc2ccnc3[nH]c4ccc(S(=O)(=O)N5CCNCC5)cc4c23)c1
For the two items I and II , which reports the higher IC50 value? State the label of the item chosen. I
(I: 978 nM, II: 576 nM)

###

target-entity: Receptor tyrosine-protein kinase erbB-2 (Homo sapiens, UniProt P04626)
procedure-text: Inhibition of human recombinant GST-fused HER2 expressed in baculovirus Sf9 insect cells using poly(Glu,Tyr) as substrate after 60 mins by scintillation counting
endpoint: IC50 (nM)

As a guide, the following entries are already answered.
{"columns": ["chemical-smiles", "endpoint", "assay-value"],
 "data": [
  ["Clc1cccc(Nc2ccnc3[nH]c4ccccc4c23)c1", "IC50", 66],
  ["Clc1ccc(Nc2ccnc3[nH]c4ccccc4c23)cc1", "IC50", 310]
]}

(I) COc1cccc(Nc2ccnc3[nH]c4ccc(S(=O)(=O)N5CCNCC5)cc4c23)c1
(II) O=S(=O)(c1ccc2[nH]c3nccc(Nc4cccc(OCc5ccccc5)c4)c3c2c1)N1CCOCC1
Please choose the item with the lower IC50 value from this pair: I and II State the label of the item chosen. I
